The origin of these recorded values is a polymer gas permeability compilation.

RECORDED METRIC: O2 permeability (Barrer)

Solved entries:
Looking up *c1cccc(N2C(=O)c3ccc(C(c4ccc5c(c4)C(=O)N(*)C5=O)(C(F)(F)F)C(F)(F)F)cc3C2=O)c1C (repeat unit) , I found its O2 permeability recorded as 10.8

Looking up *c1cccc(C(c2cccc(-c3nnc(*)n3-c3ccc(O)cc3)c2)(C(F)(F)F)C(F)(F)F)c1 (repeat unit) , I found its O2 permeability recorded as 12.5

Looking up *c1ccc(Oc2ccc(N3C(=O)c4ccc(Oc5ccc(Oc6ccc7c(c6)C(=O)N(*)C7=O)cc5)cc4C3=O)cc2)cc1 (repeat unit) , I found its O2 permeability recorded as 0.216

Looking up *Oc1cc2c(cc1O*)C1(CC2(C)C)CC(C)(C)c2cc3c(cc21)Oc1c(C#N)c(*)c(*)c(C(=O)O)c1O3 (repeat unit) , I found its O2 permeability recorded as 534

Looking up *=CC1CC(C=*)C2C(=O)N(C3CCCCC3)C(=O)C12 (repeat unit) , I found its O2 permeability recorded as 2.21

a: */C=C/c1ccc(*)cc1[Si](CC)(CC)CC (repeat unit)
b: *c1ccc2c(-c3c(O)ccc4cc(N5C(=O)c6ccc(Oc7ccc8c(c7)C(=O)N(*)C8=O)cc6C5=O)ccc34)c(O)ccc2c1 (repeat unit)
Task: Would you let me know which has the greater O2 permeability value, a or b ? Give the label of your selection.
Output: a
(a: 6.6 Barrer, b: 0.35 Barrer)
